B1: 2M8U (parent)
chain: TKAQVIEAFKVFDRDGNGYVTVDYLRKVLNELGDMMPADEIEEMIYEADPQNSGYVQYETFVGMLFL

Variants of: B1
Experiment: folding stability dG (cDNA display proteolysis); higher = more stable
Conditions: PBS, room temperature
Below, each of the variants is paired with its reported folding stability dG value.
Remember to put the unit after the number in your answer.

variant=R14E measured_quantity="folding stability dG" recorded_measurement="3.62 kcal/mol"

Sample `E40Q` — what was its folding stability dG?
3.64 kcal/mol

Sample `Q57S` — what was its folding stability dG?
2.71 kcal/mol

Sample `P37N` — what was its folding stability dG?
3.6 kcal/mol

Sample `M64P` — what was its folding stability dG?
2.66 kcal/mol

Sample `R14P` — what was its folding stability dG?
3.5 kcal/mol

Sample `N17M` — what was its folding stability dG?
3.15 kcal/mol

Sample `V11C` — what was its folding stability dG?
3.39 kcal/mol

Sample `D34I` — what was its folding stability dG?
4.72 kcal/mol
